Molecular target: T1, 4H3709-AA
T1 chain: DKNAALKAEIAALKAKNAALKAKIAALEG
Test: two-hybrid library CCmax;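 also: natural log of median RNA to DNA barcode read ratio; higher means stronger binding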
Details: mean of both orientations
reportedMetric: interaction score
The answer should be a number; do not append a unit.

Sample records with interaction score:
Requested field: interaction score. Item: DKNAALKAEIAALKAENAALEAEIAALKG [4H3666-AA] 1.48

Field entry: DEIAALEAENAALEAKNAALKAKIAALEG [4H189-AA] -1.23

Moving on to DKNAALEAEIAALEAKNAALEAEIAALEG [4H3121-AA] -0.104

Shifting focus to the binder that follows.
What measured interaction score goes with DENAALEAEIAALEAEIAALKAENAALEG [4H1035-AA] ? -0.573
